Tested on: MOLT-4 leukemia
Assay: NCI tumour cell line growth inhibition, 48 h
Hi there, I'd appreciate the recorded GI50 for every entry that follows.

Given item Nc1ccccc1C#Cc1ccccc1C#Cc1cnccn1 , the value recorded as its GI50 is 40800 nM

Given item CC#CC(=O)N1CC[C@@H](n2c(=O)n(-c3ccc(Oc4ccccc4)cc3)c3c(N)ncnc32)C1 , the value recorded as its GI50 is 10200 nM

Given item COc1cc2c3c(n(CCCN4CCCC(O)C4)c(=O)c2cc1OC)-c1cc2c(cc1C3=O)OCO2 (centres undefined) , the value recorded as its GI50 is < 5 nM

Given item C=CCSSc1ncnc2c1ncn2C1OC(CO)C(O)C1O (centres undefined) , the value recorded as its GI50 is 1540 nM

Given item Nc1nc(-c2ccc(Cl)cc2)cc(-c2ccccc2)c1-c1nc2ccccc2o1 , the value recorded as its GI50 is 3300 nM

Given item COc1ccc2nc(-c3cc4c([nH]c5ccccc54)c(-c4ccc(F)c(F)c4)n3)[nH]c2c1 , the value recorded as its GI50 is 2030 nM

Given item Nc1c2ccccc2nc2ccccc12 (tested in a mixture with another compound) , the value recorded as its GI50 is 2320 nM

Given item COC(C)(C)[C@H](O)C(O)CC(C)[C@@H]1CCC23CC12CCC1[C@@]2(C)CCC(OC(C)=O)C(C)(C)C2CC(OC2OC(COC(C)=O)C(O)C(O)C2O)[C@]13C (some centres undefined) , the value recorded as its GI50 is 6.25 nM

Given item Nc1ccc(-c2ccc(-c3nc4cc(Cl)c(Cl)cc4[nH]3)cc2)cc1 , the value recorded as its GI50 is 1660 nM
